System: IGROV-1
Experiment: NCI tumour cell line growth inhibition, 48 h
Calls of active or inactive are those of the source. Cut-off read from the data, not from the text of the source: active = GI50 up to about 1.1 µM and inactive = higher.
// values below are reported GI50

GI50 of CN(c1ccccc1)c1cc2ccccc2nn1 , assay on IGROV-1, is > 100 µM (inactive)

GI50 of Cc1cc2c(cc1Cl)SC(NS(=O)(=O)c1ccc(Cl)cc1)=NS2(=O)=O , assay on IGROV-1, is 89.5 µM (inactive)

GI50 of Cc1ccc(Nc2nc(=O)[nH]c(=O)[nH]2)cc1N=[N+]=[N-] , assay on IGROV-1, is > 100 µM (inactive)

Next:
GI50 of O=C1N/C(=N/N=C/c2cccs2)N/C1=C\c1ccco1 , assay on IGROV-1, is 26.1 µM (inactive)

GI50 of CCOC(=O)NC(=O)c1cn(CC(=O)NCC(=O)NCC(=O)N2CCN(CCn3c(C)nc(C(N)=O)c3N)CC2)c(=O)[nH]c1=O , assay on IGROV-1, is > 100 µM (inactive)
